study.target: human DLK (Homo sapiens (Human))
assay.comment: biochemical
Type: binding
condition.parameters: Table 2b DLK activity (global); read-out: Kd
Assignment: determine reported Kd for the given compounds.
Just the number in nM, nothing appended.

Consider the compound shown here: Nc1ncc(-c2cn(C34CC(N5CCOCC5)(C3)C4)c(C3CCCO3)n2)cc1OC(F)(F)F (centres unmarked) What is its recorded Kd?
6.7

Consider the compound shown here: CC(C)(C)Cc1nc(-c2cnc(N)c(OC(F)(F)F)c2)cn1C12CC(N3CCOCC3)(C1)C2 What is its recorded Kd?
210

Consider the compound shown here: Nc1ncc(-c2cn(C34CC(C3)C4)c([C@@H](O)C(F)(F)F)n2)cc1C(F)(F)F (single isomer, unassigned) What is its recorded Kd?
0.74

Consider the compound shown here: Nc1ncc(-c2cn(C34CC(N5CCOCC5)(C3)C4)c(CC3CC3)n2)cc1OC(F)F What is its recorded Kd?
22

Consider the compound shown here: CC(C)c1nc(-c2cnc3ccn(C(C)c4ccccn4)c3c2)cn1C12CC(N3CCOCC3)(C1)C2 (centres unmarked) What is its recorded Kd?
2.9

Consider the compound shown here: Nc1ncc(-c2cn(C34CC(N5CCC(O)CC5)(C3)C4)c(C3CC3)n2)cc1OC(F)(F)F What is its recorded Kd?
7

Consider the compound shown here: Nc1ncc(-c2cn(C34CC(N5CCOCC5)(C3)C4)c(C=O)n2)cc1OC(F)(F)F What is its recorded Kd?
44

Consider the compound shown here: CC(O)c1nc(-c2cnc(N)c(OC(F)(F)F)c2)cn1C12CC(C1)C2 (centres unmarked) What is its recorded Kd?
14

====

Assignment: determine reported pKd for the given molecules.
study.target: human DLK (Homo sapiens (Human), UniProt Q12852)
assay.comment: biochemical
Format: binding
condition.parameters: Table 2b DLK activity (global); read-out: Kd
Scale: negative log10 of molar concentration, which is what pKd denotes.

Consider the molecule shown here: Nc1ncc(-c2cn(C34CC(N5CCOCC5)(C3)C4)c(CC(F)(F)F)n2)cc1OC(F)(F)F What is its recorded pKd?
7.89

Consider the molecule shown here: Nc1ncc(-c2cn(C34CC(N5CCS(=O)(=O)CC5)(C3)C4)c(C3CC3)n2)cc1OC(F)(F)F What is its recorded pKd?
7.49

Consider the molecule shown here: COCCN(CCOC)C12CC(n3cc(-c4cnc(N)c(OC(F)(F)F)c4)nc3C3CC3)(C1)C2 What is its recorded pKd?
8.19

Consider the molecule shown here: CC(C)C(O)c1nc(-c2cnc(N)c(C(F)(F)F)c2)cn1C12CC(C1)C2 (stereo not shown) What is its recorded pKd?
9.54

====

study.target: human DLK (Homo sapiens (Human), UniProt Q12852)
assay.comment: cell-based
condition.parameters: Table 2b (global); additional assay runs on multiple batches, includes Table 2a data in the averaging; p-cJun (Ser63), HEK293; read-out: Cell IC50
readout.kind: pIC50
Scale: negative log10 of molar concentration, which is what pIC50 denotes.

Could you share what pIC50 was measured for CS(=O)(=O)N1CCN(C23CC(n4cc(-c5cnc(N)c(OC(F)(F)F)c5)nc4C4CC4)(C2)C3)CC1 [Example 16] , tested on human DLK (Homo sapiens (Human), UniProt Q12852)?
6.34

Could you share what pIC50 was measured for Nc1ncc(-c2cn(C34CC(N5CCOCC5)(C3)C4)c(C(O)C(F)(F)F)n2)cc1C(F)(F)F (single isomer, unassigned) [Example 69a] , tested on human DLK (Homo sapiens (Human), UniProt Q12852)?
7.44

Could you share what pIC50 was measured for CC(C)c1nc(-c2cnc3ccn(C(C)c4ccccn4)c3c2)cn1C12CC(N3CCOCC3)(C1)C2 (stereo not drawn) [Example 28] , tested on human DLK (Homo sapiens (Human), UniProt Q12852)?
6.83

Could you share what pIC50 was measured for FCCn1ccc2ncc(-c3cn(C45CC(N6CCOCC6)(C4)C5)c(C4CC4)n3)cc21 [Example 21, bis(2,2,2-trifluoroacetate)] , tested on human DLK (Homo sapiens (Human), UniProt Q12852)?
5.23

Could you share what pIC50 was measured for Nc1ncc(-c2cn(C34CC(N5CCOCC5)(C3)C4)c(C3CC3)n2)cc1C(F)(F)F [Example 4] , tested on human DLK (Homo sapiens (Human), UniProt Q12852)?
6.40

Could you share what pIC50 was measured for Nc1ncc(-c2cn(C34CC(N5CCOCC5)(C3)C4)c(C3CCC3)n2)cc1OC(F)(F)F [Example 43] , tested on human DLK (Homo sapiens (Human), UniProt Q12852)?
6.22

Could you share what pIC50 was measured for Nc1ncc(-c2cn(C34CC(N5CCOCC5)(C3)C4)c([C@H](O)C(F)(F)F)n2)cc1OC(F)(F)F (single isomer, unassigned) [Example 8a] , tested on human DLK (Homo sapiens (Human), UniProt Q12852)?
7.61

Could you share what pIC50 was measured for CCC(O)c1nc(-c2cnc(N)c(C(F)(F)F)c2)cn1C12CC(C1)C2 (stereo not drawn) [Example 61] , tested on human DLK (Homo sapiens (Human), UniProt Q12852)?
6.78

Could you share what pIC50 was measured for Nc1ncc(-c2cn(C34CC(N5CCN(CCF)CC5)(C3)C4)c(C3CC3)n2)cc1OC(F)(F)F [Example 17] , tested on human DLK (Homo sapiens (Human), UniProt Q12852)?
6.55

Could you share what pIC50 was measured for CC(C)Cc1nc(-c2cnc(N)c(OC(F)(F)F)c2)cn1C12CC(N3CCOCC3)(C1)C2 [Example 45] , tested on human DLK (Homo sapiens (Human), UniProt Q12852)?
6.12

Could you share what pIC50 was measured for COCCN(C)C12CC(n3cc(-c4cnc(N)c(OC(F)(F)F)c4)nc3C3CC3)(C1)C2 [Example 24] , tested on human DLK (Homo sapiens (Human), UniProt Q12852)?
6.26

Could you share what pIC50 was measured for CC(C)c1nc(-c2cnc(N)c(OC(F)(F)F)c2)cn1C12CC(N3CCN(C)CC3)(C1)C2 [Example 74] , tested on human DLK (Homo sapiens (Human), UniProt Q12852)?
6.71

Could you share what pIC50 was measured for Nc1ncc(-c2cn(C34CC(C3)C4)c(C(O)C3CC3)n2)cc1OC(F)(F)F (stereo not drawn) [Example 56] , tested on human DLK (Homo sapiens (Human), UniProt Q12852)?
6.56

Could you share what pIC50 was measured for Nc1ncc(-c2cn(C34CC(C3)C4)c([C@H](O)C(F)(F)F)n2)cc1C(F)(F)F (single isomer, unassigned) [Example 6a] , tested on human DLK (Homo sapiens (Human), UniProt Q12852)?
6.13

Could you share what pIC50 was measured for Nc1ncc(-c2cn(C34CC(N5CCS(=O)(=O)CC5)(C3)C4)c(C3CC3)n2)cc1OC(F)(F)F [Example 13] , tested on human DLK (Homo sapiens (Human), UniProt Q12852)?
6.50

Could you share what pIC50 was measured for CC(C)Cc1nc(-c2cnc(N)c(C(F)(F)F)c2)cn1C12CC(N3CCOCC3)(C1)C2 [Example 47] , tested on human DLK (Homo sapiens (Human), UniProt Q12852)?
6.18

Could you share what pIC50 was measured for COCCN(CCOC)C12CC(n3cc(-c4cnc(N)c(OC(F)(F)F)c4)nc3C3CC3)(C1)C2 [Example 25] , tested on human DLK (Homo sapiens (Human), UniProt Q12852)?
6.41

Could you share what pIC50 was measured for CN1CCN(C23CC(n4cc(-c5cnc(N)c(C(F)(F)F)c5)nc4C4CC4)(C2)C3)CC1 [Example 75] , tested on human DLK (Homo sapiens (Human), UniProt Q12852)?
6.59

Could you share what pIC50 was measured for CC(C)C(O)c1nc(-c2cnc(N)c(C(F)(F)F)c2)cn1C12CC(C1)C2 (stereo not drawn) [Example 59] , tested on human DLK (Homo sapiens (Human), UniProt Q12852)?
7.68

Could you share what pIC50 was measured for Nc1ncc(-c2cn(C34CC(N5CCN(CC(F)(F)F)CC5)(C3)C4)c(C3CC3)n2)cc1OC(F)(F)F [Example 15] , tested on human DLK (Homo sapiens (Human), UniProt Q12852)?
6.27

Could you share what pIC50 was measured for CN1CCN(C23CC(n4cc(-c5cnc(N)c(OC(F)(F)F)c5)nc4C4CC4)(C2)C3)CC1=O [Example 22] , tested on human DLK (Homo sapiens (Human), UniProt Q12852)?
6.39

Could you share what pIC50 was measured for CCCN1CCN(C23CC(n4cc(-c5cnc(N)c(OC(F)(F)F)c5)nc4[C@@H](O)C(C)C)(C2)C3)CC1 [Example 10] , tested on human DLK (Homo sapiens (Human), UniProt Q12852)?
7.86

Could you share what pIC50 was measured for Nc1ncc(-c2cn(C34CC(N5CCOCC5)(C3)C4)c(C3CCCC3)n2)cc1OC(F)(F)F [Example 44] , tested on human DLK (Homo sapiens (Human), UniProt Q12852)?
6.07

Could you share what pIC50 was measured for CN1CCN(C23CC(n4cc(-c5cnc(N)c(OC(F)(F)F)c5)nc4CC4CC4)(C2)C3)CC1 [Example 72] , tested on human DLK (Homo sapiens (Human), UniProt Q12852)?
5.94

Could you share what pIC50 was measured for CCC(C)c1nc(-c2cnc(N)c(OC(F)F)c2)cn1C12CC(N3CCOCC3)(C1)C2 (stereo not drawn) [Example 51] , tested on human DLK (Homo sapiens (Human), UniProt Q12852)?
6.12

Could you share what pIC50 was measured for Nc1ncc(-c2cn(C34CC(N5CCOCC5)(C3)C4)c(C=O)n2)cc1OC(F)(F)F [Example 66] , tested on human DLK (Homo sapiens (Human), UniProt Q12852)?
5.85

Could you share what pIC50 was measured for Nc1ncc(-c2cn(C34CC(N5CCOCC5)(C3)C4)c(CC(F)(F)F)n2)cc1OC(F)(F)F [Example 48] , tested on human DLK (Homo sapiens (Human), UniProt Q12852)?
6.38

Could you share what pIC50 was measured for CCCN1CCN(C23CC(n4cc(-c5cnc(N)c(OC(F)(F)F)c5)nc4C(O)C(C)C)(C2)C3)CC1 (stereo not drawn) [Example 70] , tested on human DLK (Homo sapiens (Human), UniProt Q12852)?
6.03

Could you share what pIC50 was measured for CC(C)(C)Cc1nc(-c2cnc(N)c(C(F)(F)F)c2)cn1C12CC(N3CCOCC3)(C1)C2 [Example 40] , tested on human DLK (Homo sapiens (Human), UniProt Q12852)?
5.61

Could you share what pIC50 was measured for CN1CCN(C23CC(n4cc(-c5cnc(N)c(OC(F)F)c5)nc4CC4CC4)(C2)C3)CC1 [Example 73] , tested on human DLK (Homo sapiens (Human), UniProt Q12852)?
6.20

Ref: patent US10093664B2
